experiment: Volume of distribution in Sprague-Dawley rat at 2 mg/kg, iv; type: ADME, organism-based; design: dose 2 mg/kg, route intravenous; settings: in vivo
valueKind: Vd (L/kg)

>  <smilesRepresentation>
C=C[C@@H]1C[C@]1(NC(=O)[C@@H]1C[C@@H]2CN1C(=O)[C@H](C(C)(C)C)NC(=O)O[C@@H]1C[C@H]1CCCCCc1nc3ccc(OC)cc3nc1O2)C(=O)[N-]S(=O)(=O)C1CC1.[K+]

>  <valueKind>
Vd

>  <measuredValue>
3.1

$$$$

###

assay: Aqueous solubility of the compound; format: physicochemical; conditions: buffer
In this section we review reported solubility values for a set of molecules.

>  <smilesRepresentation>
C=C[C@@H]1C[C@]1(NC(=O)[C@@H]1C[C@@H]2CN1C(=O)[C@H](C(C)(C)C)NC(=O)O[C@@H]1C[C@H]1CCCCCc1nc3ccc(OC)cc3cc1O2)C(=O)NS(=O)(=O)C1CC1

>  <censoringSign>
<

>  <solubility, µg/mL>
9

$$$$
>  <smilesRepresentation>
C=C[C@@H]1C[C@]1(NC(=O)[C@@H]1C[C@@H]2CN1C(=O)[C@H](C(C)(C)C)NC(=O)O[C@@H]1C[C@H]1CCCCCc1nc3ccc(OC)cc3cc1O2)C(=O)[N-]S(=O)(=O)C1CC1.[K+]

>  <censoringSign>
=

>  <solubility, µg/mL>
9700

$$$$

###

experiment: Inhibition of Hepatitis C virus (isolate NZL1) genotype 3a NS3/4a protease expressed in Escherichia coli by time-resolved fluorescence analysis
pKi: −log10 of the molar value.
In this section we review reported pKi values for a set of molecules.

>  <molecule>
C=C[C@@H]1C[C@]1(NC(=O)[C@@H]1C[C@@H]2CN1C(=O)[C@H](C(C)(C)C)NC(=O)OCCCCC/C=C/c1cc3ccccc3nc1O2)C(=O)NS(=O)(=O)C1CC1

>  <pKi>
6.89

$$$$
>  <molecule>
C=C[C@@H]1C[C@]1(NC(=O)[C@@H]1C[C@@H]2CN1C(=O)[C@H](C1CCCCC1)NC(=O)OCC(C)(C)CCCc1cc3c(nccc3cc1OC)O2)C(=O)NS(=O)(=O)C1CC1

>  <pKi>
7.15

$$$$
>  <molecule>
C=C[C@@H]1C[C@]1(NC(=O)[C@@H]1C[C@@H]2CN1C(=O)[C@H](C(C)(C)C)NC(=O)O[C@@H]1C[C@H]1CCCCCc1nc3ccc(OC)cc3nc1O2)C(=O)NS(=O)(=O)C1CC1 [GRAZOPREVIR ANHYDROUS]

>  <pKi>
9.15

$$$$

# credit: ChEMBL document CHEMBL2062451
